From: the supplement of paper PMC9254222

The entries below come with measured Wnt reporter firefly/Renilla luciferase ratio values attached.
test system: HEK293T (UBE3A T485A transfected, BAR Wnt reporter); experiment: Wnt reporter firefly/Renilla luciferase ratio relative to plate median (fold (linear ratio)); higher = more Wnt/beta-catenin reporter activation; conditions: concentration: 1 uM; 24 h
In all, about 1,100 compounds were measured (“Wnt reporter firefly/Renilla luciferase ratio relative to plate median”: median about 1.1, highest 2% from about 1.6 on). What follows is part of a selection rich in the highest values, with near analogues and random picks from the rest.
Respond with the number and no other words.

In the examples that follow, each entry is paired with its recorded Wnt reporter firefly/Renilla luciferase ratio.
[[record]]
compound = "COc1cc(S(=O)(=O)[O-])c(C)cc1/N=N/c1c(O)ccc2cc(S(=O)(=O)[O-])ccc12.[Na+].[Na+]"
value_observed = 1

[[record]]
compound = "CC(C)(C)c1cccc(C(C)(C)C)c1O"
value_observed = 1.01


Query block: Test system HEK293T (UBE3A T485A transfected, BAR Wnt reporter); read-out Wnt reporter firefly/Renilla luciferase ratio; what value for NC(=O)N1c2ccccc2C=Cc2ccccc21 [Carbamazepine] ?
Result block: 0.977
